- testTarget: human Y2R (Homo sapiens)
- Sequence (P49146 1-381): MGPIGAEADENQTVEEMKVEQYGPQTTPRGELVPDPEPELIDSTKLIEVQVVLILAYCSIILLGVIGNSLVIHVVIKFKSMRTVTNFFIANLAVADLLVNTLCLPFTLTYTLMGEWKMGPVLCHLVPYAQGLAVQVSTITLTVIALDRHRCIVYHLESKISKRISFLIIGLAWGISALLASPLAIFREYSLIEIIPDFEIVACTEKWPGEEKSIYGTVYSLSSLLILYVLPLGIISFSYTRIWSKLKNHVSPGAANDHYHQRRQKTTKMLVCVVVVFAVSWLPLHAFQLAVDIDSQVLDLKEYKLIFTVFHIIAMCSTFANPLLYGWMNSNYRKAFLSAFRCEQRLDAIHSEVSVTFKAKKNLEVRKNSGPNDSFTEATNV
Where a SMILES comes first, the peptide text is derived from it. [ ]: non-standard residue; d: D form. The star is where a group is joined. 2Nal = N[C@@H](Cc1ccc2ccccc2c1)C(=O)O; Cyclohexanecarbonyl = O=C(C1CCCCC1)*; Cha = N[C@@H](CC1CCCCC1)C(=O)O; Aib = CC(C)(N)C(=O)O
quantityMeasured: IC50 (nM)
Supply the numeric figure in nM, leaving out any unit text.

Return value of IC50 for input CC(C)C[C@H](NC(=O)[C@H](CC(N)=O)NC(=O)[C@H](CC1CCCCC1)NC(=O)[C@H](Cc1ccc2ccccc2c1)NC(=O)[C@H](Cc1c[nH]cn1)NC(=O)[C@H](CCCNC(=N)N)NC(=O)C1CCCCC1)C(=O)NC(C)(C)C(=O)N[C@H](C(=O)N[C@@H](CCCNC(=N)N)C(=O)N[C@@H](CCC(N)=O)C(=O)N[C@@H](CCCNC(=N)N)C(=O)N[C@@H](CC1CCCCC1)C(N)=O)[C@@H](C)O [Compound 29] (Cyclohexanecarbonyl-RH[2Nal][Cha]NL[Aib]TRQR[Cha]-NH2) , no commentary.
18

###

- testTarget: human Y2R (Homo sapiens, UniProt P49146)
Where a SMILES comes first, the peptide text is derived from it. [ ]: non-standard residue; d: D form. The star is where a group is joined. Cha = N[C@@H](CC1CCCCC1)C(=O)O; Bz = O=C(c1ccccc1)*
quantityMeasured: IC50 (nM)
Kindly provide the numeric value in nM only, without the unit symbol.

Provide the reported IC50 (system: human Y2R (Homo sapiens, UniProt P49146)) for CC[C@H](C)[C@H](NC(=O)[C@H](CC1CCCCC1)NC(=O)[C@H](Cc1c[nH]cn1)NC(=O)[C@H](CCCNC(=N)N)NC(=O)c1ccccc1)C(=O)N[C@@H](CC(N)=O)C(=O)N[C@@H](Cc1c[nH]c2ccccc12)C(=O)N[C@@H](CCCCN)C(=O)N[C@H](C(=O)N[C@@H](CCCNC(=N)N)C(=O)N[C@@H](CCC(N)=O)C(=O)N[C@@H](CCCNC(=N)N)C(=O)N[C@@H](CC1CCCCC1)C(N)=O)[C@@H](C)O [Compound 12] (Bz-RH[Cha]INWKTRQR[Cha]-NH2)
2.4

###

- measurementNotes: Pharmacokinetics of PYY analogues in mice
- Format: in vivo
- conditionDetails: C57BL/6J, mouse, plasma, ip, 1 mg/kg
Where a SMILES comes first, the peptide text is derived from it. [ ]: non-standard residue; d: D form. The star is where a group is joined. Cha = N[C@@H](CC1CCCCC1)C(=O)O; Aib = CC(C)(N)C(=O)O; Bz = O=C(c1ccccc1)*
quantityMeasured: Cmax (nM)
Your answer is read as nM, so omit the unit and give the number.

Give recorded Cmax. CC(C)C[C@H](NC(=O)[C@H](CC(N)=O)NC(=O)[C@H](CC1CCCCC1)NC(=O)[C@H](CC1CCCCC1)NC(=O)[C@H](Cc1cnc[nH]1)NC(=O)[C@H](CCCNC(=N)N)NC(=O)c1ccccc1)C(=O)NC(C)(C)C(=O)N[C@H](C(=O)N[C@@H](CCCNC(=N)N)C(=O)N[C@@H](CCC(N)=O)C(=O)N[C@@H](CCCNC(=N)N)C(=O)N[C@@H](CC1CCCCC1)C(N)=O)[C@@H](C)O [Compound 21, benzoyl-[Cha^27,28,36,Aib^31]PYY(25–36)] (Bz-RH[Cha][Cha]NL[Aib]TRQR[Cha]-NH2)
406

###

- measurementNotes: Pharmacokinetics of PYY analogues in mice
- Assay type: in vivo
- conditionDetails: C57BL/6J, mouse, plasma, iv, 1 mg/kg
Where a SMILES comes first, the peptide text is derived from it. [ ]: non-standard residue; d: D form. The star is where a group is joined. Cha = N[C@@H](CC1CCCCC1)C(=O)O; Aib = CC(C)(N)C(=O)O; Bz = O=C(c1ccccc1)*
quantityMeasured: clearance (mL/min/kg)
Quick note: give the figure in mL/min/kg, leave out the unit.

Please look at this molecule and report its clearance: CC(C)C[C@H](NC(=O)[C@H](CC(N)=O)NC(=O)[C@H](CC1CCCCC1)NC(=O)[C@H](CC1CCCCC1)NC(=O)[C@H](Cc1cnc[nH]1)NC(=O)[C@H](CCCNC(=N)N)NC(=O)c1ccccc1)C(=O)NC(C)(C)C(=O)N[C@H](C(=O)N[C@@H](CCCNC(=N)N)C(=O)N[C@@H](CCC(N)=O)C(=O)N[C@@H](CCCNC(=N)N)C(=O)N[C@@H](CC1CCCCC1)C(N)=O)[C@@H](C)O [Compound 21, benzoyl-[Cha^27,28,36,Aib^31]PYY(25–36)] (Bz-RH[Cha][Cha]NL[Aib]TRQR[Cha]-NH2)
2.7

###

Reported remaining at 0.5 h values for the following molecules.
- measurementNotes: Stability in 20% mouse serum/PBS
- Type: in vitro ADME
- conditionDetails: mouse, 20% mouse serum in PBS
Where a SMILES comes first, the peptide text is derived from it. [ ]: non-standard residue; d: D form. The star is where a group is joined. Phe(4-F) = N[C@@H](Cc1ccc(F)cc1)C(=O)O; Cha = N[C@@H](CC1CCCCC1)C(=O)O; Aib = CC(C)(N)C(=O)O; Bz = O=C(c1ccccc1)*
Express the result in % but write the number alone.

| molecule | remaining at 0.5 h [%] |
| --- | --- |
| CC[C@H](C)[C@H](NC(=O)[C@H](CC1CCCCC1)NC(=O)[C@H](Cc1c[nH]cn1)NC(=O)[C@H](CCCNC(=N)N)NC(=O)c1ccccc1)C(=O)N[C@@H](CC(N)=O)C(=O)N[C@@H](Cc1ccc(F)cc1)C(=O)N[C@H](C(=O)N[C@H](C(=O)N[C@@H](CCCNC(=N)N)C(=O)N[C@@H](CCC(N)=O)C(=O)N[C@@H](CCCNC(=N)N)C(=O)N[C@@H](CC1CCCCC1)C(N)=O)[C@@H](C)O)[C@@H](C)CC [Compound 6] (Bz-RH[Cha]IN[Phe(4-F)]ITRQR[Cha]-NH2) | 96 |

Respond only with remaining at 0.5 h recorded for CC[C@H](C)[C@H](NC(=O)[C@H](CC1CCCCC1)NC(=O)[C@H](Cc1c[nH]cn1)NC(=O)[C@H](CCCNC(=N)N)NC(=O)c1ccccc1)C(=O)N[C@@H](CC(N)=O)C(=O)N[C@@H](CC(C)C)C(=O)NC(C)(C)C(=O)N[C@H](C(=O)N[C@@H](CCCNC(=N)N)C(=O)N[C@@H](CCC(N)=O)C(=O)N[C@@H](CCCNC(=N)N)C(=O)N[C@@H](CC1CCCCC1)C(N)=O)[C@@H](C)O [Compound 10] (Bz-RH[Cha]INL[Aib]TRQR[Cha]-NH2)
94

Check the records and state remaining at 0.5 h for CC[C@H](C)[C@H](NC(=O)[C@H](CC1CCCCC1)NC(=O)[C@H](Cc1c[nH]cn1)NC(=O)[C@H](CCCNC(=N)N)NC(=O)c1ccccc1)C(=O)N[C@@H](CC(N)=O)C(=O)N[C@@H](CC(C)C)C(=O)N[C@@H](CC1CCCCC1)C(=O)N[C@H](C(=O)N[C@@H](CCCNC(=N)N)C(=O)N[C@@H](CCC(N)=O)C(=O)N[C@@H](CCCNC(=N)N)C(=O)N[C@@H](CC1CCCCC1)C(N)=O)[C@@H](C)O [Compound 8] (Bz-RH[Cha]INL[Cha]TRQR[Cha]-NH2)
114

Determine from records and report remaining at 0.5 h for CC[C@H](C)[C@H](NC(=O)[C@H](Cc1ccc(O)cc1)NC(=O)[C@H](C)NC(=O)[C@H](CCCNC(=N)N)NC(=O)c1ccccc1)C(=O)N[C@@H](CC(N)=O)C(=O)N[C@@H](CC(C)C)C(=O)N[C@H](C(=O)N[C@H](C(=O)N[C@@H](CCCNC(=N)N)C(=O)N[C@@H](CCC(N)=O)C(=O)N[C@@H](CCCNC(=N)N)C(=O)N[C@@H](CC1CCCCC1)C(N)=O)[C@@H](C)O)[C@@H](C)CC [Compound 2] (Bz-RAYINLITRQR[Cha]-NH2)
53

Tell us which remaining at 0.5 h value is on record for CC[C@H](C)[C@H](NC(=O)[C@H](CC1CCCCC1)NC(=O)[C@H](Cc1c[nH]cn1)NC(=O)[C@H](CCCNC(=N)N)NC(=O)c1ccccc1)C(=O)N[C@@H](CC(N)=O)C(=O)N[C@@H](Cc1c[nH]c2ccccc12)C(=O)N[C@@H](CCCCN)C(=O)N[C@H](C(=O)N[C@@H](CCCNC(=N)N)C(=O)N[C@@H](CCC(N)=O)C(=O)N[C@@H](CCCNC(=N)N)C(=O)N[C@@H](CC1CCCCC1)C(N)=O)[C@@H](C)O [Compound 12] (Bz-RH[Cha]INWKTRQR[Cha]-NH2)
51
